Numbers sourced from BigSolDB 2.1.

CONDITION_DETAILS: in methanol, 265.35 K
MEASUREMENT_NAME: solubility (mole fraction)
Just the number, please.

Sample COC(=O)C(C)(C)N=NC(C)(C)C(=O)OC — what was its solubility (mole fraction)?
0.0253

* * *

CONDITION_DETAILS: in dichloromethane, 281.15 K
MEASUREMENT_NAME: solubility (mole fraction)
Could you respond with only the numeric value?

Suppose we examine the compound COC(=O)C(C)(C)N=NC(C)(C)C(=O)OC ; what solubility (mole fraction) value has been reported?
0.513

* * *

CONDITION_DETAILS: in cyclohexane, 281.15 K
MEASUREMENT_NAME: solubility (mole fraction)
Form field (numeric): enter value without unit.

Which solubility (mole fraction) reading was recorded for the molecule COC(=O)C(C)(C)N=NC(C)(C)C(=O)OC ?
0.147
